Please go through the items and note down their inhibition at 20 µM.
TEST TARGET: KRas G12D mutant protein (Homo sapiens (Human), UniProt P01116, G12D)
Sequence (P01116-2 other isoform, or with tags, fused parts or gaps G12D): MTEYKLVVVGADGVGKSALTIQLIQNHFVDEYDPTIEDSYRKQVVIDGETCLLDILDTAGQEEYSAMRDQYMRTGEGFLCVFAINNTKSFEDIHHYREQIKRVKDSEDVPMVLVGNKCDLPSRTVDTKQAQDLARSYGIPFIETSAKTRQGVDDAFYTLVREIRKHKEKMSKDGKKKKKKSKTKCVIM
MEASUREMENT PROTOCOL: Ras GTP binding domain inhibition assay (labeled GTP)
RECORDED CONDITIONS: 20 μM; read-out: KRas G12D % Inh.

MOLECULE	inhibition at 20 µM
O=C(Nc1nnc(-c2ccccn2)[nH]1)c1ccc2ccccc2n1 [drawing 2472]	76 to 100%
CN(Cc1nnc(-c2ccccc2Cl)o1)Cc1ccccc1C(F)(F)F [drawing 2482]	25 to 50%
O=C(c1ccn(-c2ccccc2)n1)N1CCCc2c(O)nc(-c3ccccn3)nc21 [drawing 2644]	51 to 75%
O=C(Nc1nnc(-c2ccccn2)[nH]1)c1ccn(-c2cccc(Cl)c2)n1 [drawing 2559]	76 to 100%
Cc1sc2nc(-c3ccccn3)nc(NCCCO)c2c1-c1ccccc1 [drawing 2610]	51 to 75%

Can you give me inhibition at 20 µM for all of these, one by one?
1. CC(O)CNc1nc(-c2ccccn2)nc2scc(-c3ccccc3)c12 (stereo not shown) [drawing 2607]
2. CS(=O)(=O)Cc1ccc(C(=O)Nc2nc(-c3ccccn3)cs2)cc1 [drawing 2572]

1. 51 to 75%
2. 1 to 25%

Can you give me inhibition at 20 µM for all of these, one by one?
1. O=C(Nc1nc(-c2ccccn2)cs1)c1ccccn1 [drawing 2573]
2. OCCNc1nc(-c2ccccn2)nc2scc(-c3ccccc3)c12 [drawing 2603]
3. COc1cccc(C(=O)Nc2nc(-c3ccccn3)cs2)c1 [drawing 2580]
4. O=c1nc(-c2ccccn2)[nH]c2c1CCC2 [drawing 2591]
5. O=C(Nc1nc(-c2ccccn2)cs1)c1cccc(F)c1 [drawing 2567]
6. COC(=O)c1cc(NCc2nc(CC(C)C)no2)ccc1Cl [drawing 2612]

["51 to 75%", "51 to 75%", "51 to 75%", "51 to 75%", "51 to 75%", "51 to 75%"]

Can you give me inhibition at 20 µM for all of these, one by one?
1. O=C(Nc1nc(-c2ccccn2)cs1)c1cccnc1 [drawing 2576]
2. O=C(c1ccc2ccccc2n1)N1CCCc2c(O)nc(-c3ccccn3)nc21 [drawing 2642]
3. Cc1cc2c(=O)nc(-c3cc(OCC(F)F)ccn3)[nH]c2s1 [drawing 2593]
4. Cc1cc(C(=O)Nc2nc(-c3ccccn3)cs2)no1 [drawing 2568]

1. 51 to 75%
2. 51 to 75%
3. 51 to 75%
4. 25 to 50%

Can you give me inhibition at 20 µM for all of these, one by one?
1. OCCOCCNc1nc(-c2ccccn2)nc2scc(-c3ccccc3)c12 [drawing 2609]
2. CS(=O)(=O)N1CCCc2cc(C(=O)Nc3nnc(-c4ccccn4)[nH]3)ccc21 [drawing 2561]

["25 to 50%", "51 to 75%"]
